- Target Or Test System: recombinant human PIM2 (Homo sapiens (Human), UniProt Q9P1W9)
- Sequence (Q9P1W9 whole entry): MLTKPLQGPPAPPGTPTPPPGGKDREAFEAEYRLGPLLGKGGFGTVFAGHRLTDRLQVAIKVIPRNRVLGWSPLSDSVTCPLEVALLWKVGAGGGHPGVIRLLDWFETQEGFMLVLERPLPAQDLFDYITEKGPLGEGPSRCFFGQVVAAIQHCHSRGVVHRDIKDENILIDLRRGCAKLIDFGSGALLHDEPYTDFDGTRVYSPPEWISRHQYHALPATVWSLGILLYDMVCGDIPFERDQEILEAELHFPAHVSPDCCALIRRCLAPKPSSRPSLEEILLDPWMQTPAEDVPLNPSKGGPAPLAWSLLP
- Assay Overview: PIM-2 assay (33P-ATP filter binding)
- Assay type: biochemical
- Cond: PIM2: IC50 (5 μM ATP), 5 μM ATP
log10 of IC50: recorded values
Test Readout: log10 of IC50 (log10 of the value in nM)

Molecule: C[C@@H](Nc1cc(NC2CC2)n2ncc(/C=C3\NC(=O)NC3=O)c2n1)C1CC1 [Example X2]
Reading: 3.29
//
Molecule: O=C1NC(=O)/C(=C/c2cnn3c(NC4CC4)cc(Nc4ccc(F)c(Cl)c4)nc23)N1 [Example S1]
Reading: 3.31
//
Molecule: COC(=O)Nc1cc(NC2CC2)n2ncc(/C=C3\NC(=O)NC3=O)c2n1 [Example N2]
Reading: 2.93
//
Molecule: O=C1NC(=O)/C(=C/c2cnn3c(NC4CC4)cc(-c4ccnc(F)c4)nc23)S1 [Example I5]
Reading: 2.34
//
Molecule: CN1CCCN(c2cc(NC3CC3)n3ncc(/C=C4\SC(=O)NC4=O)c3n2)CC1 [Example Q3]
Reading: 3.31
//
Molecule: O=C1NC(=O)/C(=C/c2cnn3c(NC4CC4)cc(-c4cccc(O)c4)nc23)N1 [Example S3]
Reading: 2.79
//
Molecule: O=C1NC(=O)/C(=C/c2cnn3c(NC4CC4)cc(Nc4cccc(F)c4)nc23)N1 [Example D1]
Reading: 3.34
//
Molecule: O=C1NC(=O)/C(=C/c2cnn3c(Nc4cccc(C(=O)N5CCNCC5)c4)cc(Nc4cccc(Cl)c4)nc23)N1 [Example F7]
Reading: 3.09
//
Molecule: CC(O)CNc1cc(Nc2cccc(Cl)c2)nc2c(/C=C3\NC(=O)NC3=O)cnn12 (centres unmarked) [Example K6]
Reading: 2.50
//
Molecule: O=C1NC(=O)/C(=C/c2cnn3c(NCCO)cc(Nc4cccc(Cl)c4)nc23)N1 [Example D6]
Reading: 2.68
//
Molecule: O=C1NC(=O)/C(=C/c2cnn3c(NC(=O)C4CCNCC4)cc(Nc4cccc(Cl)c4)nc23)N1 [Example B1]
Reading: 3.40
//
Molecule: O=C1NC(=O)/C(=C/c2cnn3c(SCc4ccccc4)cc(-c4cccc(Cl)c4)nc23)N1 [Example Y5]
Reading: 2.46
//
Molecule: NCc1cccc(-c2cc(NC3CC3)n3ncc(/C=C4\NC(=O)NC4=O)c3n2)c1 [Example R4]
Reading: 1.69
//
Molecule: CN(C)C(=O)N[C@H]1CC[C@H](Nc2cc(NC3CC3)n3ncc(/C=C4\NC(=O)NC4=O)c3n2)CC1 [Example B3]
Reading: 2.73
//
Molecule: CC(C)(C)CC(=O)Nc1cc(NC2CC2)n2ncc(/C=C3\NC(=O)NC3=O)c2n1 [Example M2]
Reading: 2.56
//
Molecule: O=C1NC(=O)/C(=C/c2cnn3c(NC4CC4)cc(N4CC[C@@H](F)C4)nc23)N1 [Example P2]
Reading: 2.85
//
Molecule: CN(C)c1cc(NC2CC2)n2ncc(/C=C3\SC(=O)NC3=O)c2n1 [Example I3]
Reading: 2.94
//
Molecule: O=C1NC(=O)/C(=C/c2cnn3c(NC4CC4)cc(-c4ccncc4)nc23)N1 [Example Q4]
Reading: 2.41
